meta.source: PubChem BioAssay AID504862

# Tested on: diaphorase (Clostridium kluyveri)
# Assay Method Text: C. kluyveri diaphorase inhibition, resazurin coupling – biochemical, fluorescence intensity, 10 µM NADPH, counter-screen for P. falciparum G6PD inhibitor project, confirmation (AID 504862);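 also: resorufin red fluorescence formed as diaphorase reduces resazurin using NADPH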
# Recorded Conditions: diaphorase-coupled resazurin reduction, NADPH 10 uM, at 20 µM
The other results are listed elsewhere or left out. Active and inactive are the calls of the source.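 The calls were made as follows: active = average inhibition reaching 50% or more with the compound at 20 µM; inactive = the rest.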
Please answer using one outcome listed in active, inactive

A selection of reference data follows.
compound=CCOc1ccccc1/C=N/NC(=O)CNC(=O)COc1ccccc1 target_or_test_system="diaphorase (Clostridium kluyveri)" label_value=active
compound=COc1ccc(CC(=O)NCC(=O)N/N=C/c2cc(Br)ccc2OC)cc1 target_or_test_system="diaphorase (Clostridium kluyveri)" label_value=active
compound=Cc1ccc(/C=C/C(=O)Nc2ccc([N+](=O)[O-])c(NC(=O)/C=C/c3ccc(C)o3)c2)o1 target_or_test_system="diaphorase (Clostridium kluyveri)" label_value=inactive
compound=O=[N+]([O-])c1c(NCCO)cc(Sc2nc3ccccc3s2)c2nonc12 target_or_test_system="diaphorase (Clostridium kluyveri)" label_value=inactive
compound=O=c1[nH]c2ccccc2n2c(-c3ccccc3)nnc12 target_or_test_system="diaphorase (Clostridium kluyveri)" label_value=inactive
compound=Cc1ccc(NC(=O)Cn2sc3ccccc3c2=O)cc1 target_or_test_system="diaphorase (Clostridium kluyveri)" label_value=inactive
compound=O=C(NC1=CC(=O)c2ccccc2C1=O)c1ccccc1 target_or_test_system="diaphorase (Clostridium kluyveri)" label_value=inactive
compound=CC(C)(C)NC(=O)COc1ccc(CNc2ccc3[nH]c(=O)[nH]c3c2)cc1 target_or_test_system="diaphorase (Clostridium kluyveri)" label_value=inactive

# input // outcome(item) with item = CCN1CCCC1CNC(=O)c1ccc2c(c1)NC(=O)/C(=C\c1ccccc1F)S2 (centres undefined)
# output inactive
